# measurementTarget: PDGFRα (Homo sapiens)
# Construct: purchased Millipore 14-467 (lot 26321_ACTI)
# Sequence (P16234 24-1089): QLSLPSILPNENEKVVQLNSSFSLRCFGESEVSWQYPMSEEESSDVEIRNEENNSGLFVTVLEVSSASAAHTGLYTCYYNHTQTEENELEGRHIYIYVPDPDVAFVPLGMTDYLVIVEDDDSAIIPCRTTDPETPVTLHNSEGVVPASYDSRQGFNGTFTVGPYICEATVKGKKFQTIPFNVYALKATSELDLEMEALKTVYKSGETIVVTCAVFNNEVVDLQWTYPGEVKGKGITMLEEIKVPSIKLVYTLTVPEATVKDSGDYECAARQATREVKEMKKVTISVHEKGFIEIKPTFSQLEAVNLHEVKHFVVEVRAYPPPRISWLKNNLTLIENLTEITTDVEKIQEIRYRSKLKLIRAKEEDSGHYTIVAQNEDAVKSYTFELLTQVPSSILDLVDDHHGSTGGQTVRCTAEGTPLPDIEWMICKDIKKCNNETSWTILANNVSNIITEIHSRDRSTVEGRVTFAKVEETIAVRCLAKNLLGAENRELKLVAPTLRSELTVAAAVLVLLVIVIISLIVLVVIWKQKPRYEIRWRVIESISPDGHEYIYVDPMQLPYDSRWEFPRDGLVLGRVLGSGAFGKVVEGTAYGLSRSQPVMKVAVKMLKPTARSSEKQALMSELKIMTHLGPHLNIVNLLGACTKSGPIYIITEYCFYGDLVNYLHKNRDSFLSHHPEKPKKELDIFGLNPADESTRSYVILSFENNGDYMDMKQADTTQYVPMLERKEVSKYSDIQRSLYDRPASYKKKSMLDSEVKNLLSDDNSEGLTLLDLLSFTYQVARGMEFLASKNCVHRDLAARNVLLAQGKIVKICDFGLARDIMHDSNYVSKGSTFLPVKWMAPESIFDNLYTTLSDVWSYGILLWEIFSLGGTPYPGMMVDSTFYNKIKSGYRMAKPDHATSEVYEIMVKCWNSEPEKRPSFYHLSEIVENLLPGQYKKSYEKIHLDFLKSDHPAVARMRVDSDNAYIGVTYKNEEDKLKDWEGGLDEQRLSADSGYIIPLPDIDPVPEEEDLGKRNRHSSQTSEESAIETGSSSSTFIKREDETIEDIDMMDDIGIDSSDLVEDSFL
# procedureDetails: Caliper biochemical assay, PDGFRα
# setupConditions: Table 6
Assignment: determine reported IC50 for the given compounds.

Look up IC50 for the entries below, preserving their order.
1. Cc1ccc(-c2noc([C@@H](C)O)n2)cc1NC(=O)c1cnc2ccccn12 [Compound I-270]
2. Cc1ccc(-c2noc([C@H]3C[C@@H]3F)n2)cc1NC(=O)c1cnc2cc(Br)ccn12 [Compound I-383]
3. Cc1ccc(-c2noc(C3CCN3CCOC(F)(F)F)n2)cc1NC(=O)c1cnc2ccccn12 (racemic) [Compound I-168]
4. Cc1ccc(-c2noc(C3CCN3)n2)cc1NC(=O)c1cnc2ccccn12 (racemic) [Compound I-394]
5. Cc1ccc(-c2noc([C@@H]3CCC(F)(F)CN3)n2)cc1NC(=O)c1cnc2ccccn12 (racemic) [Compound I-198]
6. Cc1ccc(-c2noc(C3CCN3S(C)(=O)=O)n2)cc1NC(=O)c1cnc2ccccn12 (stereo not drawn) [Compound I-331]
7. COC(=O)N1CC(c2nc(-c3ccc(C)c(NC(=O)c4cnc5cc(C(F)F)ccn45)c3)no2)C1 [Compound I-135]
8. Cc1ccc(-c2noc(C3CC3(C)C)n2)cc1NC(=O)c1cnc2ccccn12 (stereo not drawn) [Compound I-127]

Output line:
1. 5 to 30 µM
2. 0.05 to 0.5 µM
3. 0.5 to 5 µM
4. 5 to 30 µM
5. 0.5 to 5 µM
6. 0.05 to 0.5 µM
7. 5 to 30 µM
8. 0.05 to 0.5 µM

Can you give me IC50 for all of these, one by one?
1. Cc1ccc(-c2noc(C(C)O)n2)cc1NC(=O)c1cnc2ccccn12 (racemic) [Compound I-364]
2. Cc1ccc(-c2noc([C@H]3CC(F)(F)CN3)n2)cc1NC(=O)c1cnc2ccccn12 [Compound I-359]
3. Cc1ccc(-c2noc([C@H]3CC(F)(F)CN3)n2)cc1NC(=O)c1cnn2ccccc12 [Compound I-243]
4. Cc1ccc(-c2noc(CC3CCCOC3)n2)cc1NC(=O)c1cnc2ccccn12 (racemic) [Compound I-362]
5. Cc1ccc(-c2noc(C3(C)CC(F)(F)CN3)n2)cc1NC(=O)c1cnc2ccccn12 (racemic) [Compound I-328]

Output line:
1: 5 to 30 µM; 2: 0.5 to 5 µM; 3: 0.05 to 0.5 µM; 4: 0.5 to 5 µM; 5: 0.5 to 5 µM

Each of the following entries comes with a recorded value; kindly state IC50 for each.
1. COCCN1CC[C@H]1c1nc(-c2ccc(C)c(NC(=O)c3cnc4ccccn34)c2)no1 (racemic) [Compound I-179]
2. Cc1ccc(-c2noc(C(C)NS(C)(=O)=O)n2)cc1NC(=O)c1cnc2ccccn12 (single isomer, unassigned) [Compound I-238]

Output line:
1. 5 to 30 µM
2. 5 to 30 µM

---

For each record, write down the corresponding MDCKII-MDR1: Papp A-B.
# measurementTarget: MDR1 (MDR1-MDCKII cells) (Homo sapiens)
# Construct: host or cells: MDCKII (canine kidney) cells
# Sequence (P08183 whole entry): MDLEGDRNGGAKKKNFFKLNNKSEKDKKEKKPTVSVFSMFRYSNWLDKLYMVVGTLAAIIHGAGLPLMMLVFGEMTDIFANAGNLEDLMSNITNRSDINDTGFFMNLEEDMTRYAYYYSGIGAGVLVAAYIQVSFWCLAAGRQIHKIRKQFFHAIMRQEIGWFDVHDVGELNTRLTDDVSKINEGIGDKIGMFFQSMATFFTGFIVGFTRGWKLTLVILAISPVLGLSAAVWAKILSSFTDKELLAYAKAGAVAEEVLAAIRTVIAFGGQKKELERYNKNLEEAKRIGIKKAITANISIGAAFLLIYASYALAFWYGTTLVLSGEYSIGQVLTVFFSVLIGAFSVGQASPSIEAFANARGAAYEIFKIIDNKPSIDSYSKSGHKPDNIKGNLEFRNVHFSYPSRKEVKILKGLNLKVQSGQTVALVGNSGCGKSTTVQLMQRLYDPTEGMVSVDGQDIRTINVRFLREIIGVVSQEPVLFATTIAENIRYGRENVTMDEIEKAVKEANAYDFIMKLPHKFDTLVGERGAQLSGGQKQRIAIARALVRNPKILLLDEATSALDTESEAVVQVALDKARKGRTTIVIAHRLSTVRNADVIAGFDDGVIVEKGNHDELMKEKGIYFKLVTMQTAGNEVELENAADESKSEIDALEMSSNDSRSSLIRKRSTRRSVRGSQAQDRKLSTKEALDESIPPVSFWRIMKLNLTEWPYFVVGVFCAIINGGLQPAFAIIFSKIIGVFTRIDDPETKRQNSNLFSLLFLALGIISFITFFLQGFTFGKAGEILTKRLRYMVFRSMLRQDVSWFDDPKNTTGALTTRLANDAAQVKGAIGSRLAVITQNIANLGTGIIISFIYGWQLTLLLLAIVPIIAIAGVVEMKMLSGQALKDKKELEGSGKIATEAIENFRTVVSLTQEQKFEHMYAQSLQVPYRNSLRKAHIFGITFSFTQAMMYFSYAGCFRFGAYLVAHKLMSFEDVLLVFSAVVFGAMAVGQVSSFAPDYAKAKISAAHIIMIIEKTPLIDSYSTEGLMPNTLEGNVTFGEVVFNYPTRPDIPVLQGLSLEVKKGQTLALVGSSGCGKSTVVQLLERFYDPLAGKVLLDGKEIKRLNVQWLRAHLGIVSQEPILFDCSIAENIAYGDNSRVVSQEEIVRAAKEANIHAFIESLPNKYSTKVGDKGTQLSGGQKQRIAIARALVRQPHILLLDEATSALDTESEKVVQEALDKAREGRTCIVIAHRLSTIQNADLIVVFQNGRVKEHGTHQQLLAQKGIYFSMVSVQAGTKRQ
# procedureDetails: Permeability in MDR1-MDCKII cells
# Assay type: in vitro ADME
# setupConditions: MDCKII-MDR1, apical to basolateral

Some solved entries appear below for comparison.
CNC(=O)N1CC(c2nc(-c3ccc(C)c(NC(=O)c4cnc5ccccn45)c3)no2)C1: 0.47 10^−6 cm/s
Cc1ccc(-c2noc(C3CCC(F)C3)n2)cc1NC(=O)c1cnc2ccccn12 (racemic): 10 10^−6 cm/s
Cc1ccc(-c2noc([C@H]3C[C@@H]3F)n2)cc1NC(=O)c1cnc2cc(OC(C)C)ccn12: 3.92 10^−6 cm/s
Cc1ccc(-c2noc(C3CC(F)C3)n2)cc1NC(=O)c1cnc2ccccn12 (centres unmarked): 5.95 10^−6 cm/s
Cc1ccc(-c2noc(C3(O)CC(F)(F)C3)n2)cc1NC(=O)c1cnc2ccccn12: 10.9 10^−6 cm/s
Cc1ccc(-c2noc(CC(C)O)n2)cc1NC(=O)c1cnc2ccccn12 (racemic): 13 10^−6 cm/s

Batch of 2 compounds: report MDCKII-MDR1: Papp A-B for each.
1. COC(=O)N1CC(c2nc(-c3ccc(C(F)F)c(NC(=O)c4cnc5ccccn45)c3)no2)C1
2. Cc1ccc(-c2noc(C3CC(OCCF)C3)n2)cc1NC(=O)c1cnc2ccccn12 (centres unmarked)

Output line:
1. 15.9 10^−6 cm/s
2. 24.4 10^−6 cm/s

---

Assignment: determine reported Kp testes/plasma for the given compounds.
# procedureDetails: Three time point assay for plasma, brain and testes distribution after oral dosing
# Assay type: in vivo, rat
# setupConditions: rat, oral dosing, time point 2 h

Worked examples follow.
Cc1ccc(-c2noc([C@H]3C[C@@H]3F)n2)cc1NC(=O)c1cnc2cc(OC(F)(F)F)ccn12: 0.71
Cc1ccc(-c2noc(CC(O)C(F)F)n2)cc1NC(=O)c1cnc2ccccn12 (stereo not drawn): 0.29
Cc1nc(-c2ccc(C)c(NC(=O)c3cnc4ccccn34)c2)no1: 0.81
Cc1ccc(-c2noc([C@H]3C[C@@H]3F)n2)cc1NC(=O)c1cnc2cc(N3CCC3)ccn12: 0.49

Please give Kp testes/plasma for each item listed below.
1. Cc1ccc(-c2noc([C@H]3C[C@@H]3F)n2)cc1NC(=O)c1cnc2cc(OC(C)C)ccn12
2. Cc1ccc(-c2noc(C(C)NS(C)(=O)=O)n2)cc1NC(=O)c1cnc2ccccn12 (single isomer, unassigned) [Compound I-237]
3. Cc1ccc(-c2noc([C@@H](C)O)n2)cc1NC(=O)c1cnc2ccccn12
4. COCCOCc1ccn2c(C(=O)Nc3cc(-c4noc([C@H]5C[C@@H]5F)n4)ccc3C)cnc2c1

Output line:
1. 0.16
2. 0.18
3. 0.09
4. 0.11

Provide the reported Kp testes/plasma of each entry below, same order.
1. COc1ccn2c(C(=O)Nc3cc(-c4noc(CC(O)C(F)F)n4)ccc3C)cnc2c1 (single isomer, unassigned)
2. O=C(Nc1cc(-c2noc([C@H]3C[C@@H]3F)n2)ccc1Br)c1cnc2ccccn12

Output line:
[0.32, 1.35]

---

# measurementTarget: BCRP (BCRP-MDCKII monolayer) (Homo sapiens, UniProt Q9UNQ0)
# Construct: host or cells: MDCKII (canine kidney) cells
# Sequence (Q9UNQ0 whole entry): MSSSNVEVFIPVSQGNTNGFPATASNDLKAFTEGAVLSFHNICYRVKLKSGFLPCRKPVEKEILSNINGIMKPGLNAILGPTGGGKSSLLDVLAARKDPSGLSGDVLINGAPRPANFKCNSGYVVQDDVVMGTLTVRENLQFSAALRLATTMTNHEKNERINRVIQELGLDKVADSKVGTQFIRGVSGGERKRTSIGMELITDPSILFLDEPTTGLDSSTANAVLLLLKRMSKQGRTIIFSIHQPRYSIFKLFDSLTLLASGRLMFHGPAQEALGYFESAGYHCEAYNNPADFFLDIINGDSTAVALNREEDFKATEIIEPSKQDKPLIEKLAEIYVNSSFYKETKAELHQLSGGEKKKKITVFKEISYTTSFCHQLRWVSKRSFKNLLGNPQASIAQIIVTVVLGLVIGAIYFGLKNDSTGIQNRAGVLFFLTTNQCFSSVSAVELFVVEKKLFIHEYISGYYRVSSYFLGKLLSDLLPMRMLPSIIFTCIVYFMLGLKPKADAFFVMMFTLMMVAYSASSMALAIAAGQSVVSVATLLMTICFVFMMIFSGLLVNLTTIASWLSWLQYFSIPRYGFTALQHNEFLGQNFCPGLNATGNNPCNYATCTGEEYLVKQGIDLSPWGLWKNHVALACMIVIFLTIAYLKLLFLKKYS
# procedureDetails: MDCKII-BCRP bidirectional transport assay
# Assay type: in vitro ADME
quantityName: MDCK-BCRP: Efflux Ratio
One number for each entry.

Would you please look over these solved cases?
Cc1ccc(-c2noc([C@H]3C[C@@H]3F)n2)cc1NC(=O)c1cnc2cc(Nc3c(C)cccc3C)ccn12: 4.55
Cc1ccc(-c2noc(C3CCC3F)n2)cc1NC(=O)c1cnc2ccccn12 (racemic) [Compound I-376]: 1.02
Cc1ccc(-c2noc([C@@H](C)O)n2)cc1NC(=O)c1cnc2ccccn12: 20.8
Cc1ccc(-c2noc([C@H]3C[C@@H]3F)n2)cc1NC(=O)c1cnc2cc(N3CCCC3)ccn12: 1.21
Cc1ccc(-c2cnc(N3CC(F)(F)C3)o2)cc1NC(=O)c1cnc2ccccn12: 1.42

For each of the compounds below, note its MDCK-BCRP: Efflux Ratio.
1. COc1ccn2c(C(=O)Nc3cc(-c4noc(C[C@H](C)O)n4)ccc3C)cnc2c1
2. Cc1nc(-c2ccc(C)c(NC(=O)c3cnc4ccc(N)cn34)c2)no1

Output line:
[8.04, 37]

---

# measurementTarget: wtKIT (Homo sapiens)
# Construct: 1888289AM in the reaction mixtures
# Sequence (P10721 26-976): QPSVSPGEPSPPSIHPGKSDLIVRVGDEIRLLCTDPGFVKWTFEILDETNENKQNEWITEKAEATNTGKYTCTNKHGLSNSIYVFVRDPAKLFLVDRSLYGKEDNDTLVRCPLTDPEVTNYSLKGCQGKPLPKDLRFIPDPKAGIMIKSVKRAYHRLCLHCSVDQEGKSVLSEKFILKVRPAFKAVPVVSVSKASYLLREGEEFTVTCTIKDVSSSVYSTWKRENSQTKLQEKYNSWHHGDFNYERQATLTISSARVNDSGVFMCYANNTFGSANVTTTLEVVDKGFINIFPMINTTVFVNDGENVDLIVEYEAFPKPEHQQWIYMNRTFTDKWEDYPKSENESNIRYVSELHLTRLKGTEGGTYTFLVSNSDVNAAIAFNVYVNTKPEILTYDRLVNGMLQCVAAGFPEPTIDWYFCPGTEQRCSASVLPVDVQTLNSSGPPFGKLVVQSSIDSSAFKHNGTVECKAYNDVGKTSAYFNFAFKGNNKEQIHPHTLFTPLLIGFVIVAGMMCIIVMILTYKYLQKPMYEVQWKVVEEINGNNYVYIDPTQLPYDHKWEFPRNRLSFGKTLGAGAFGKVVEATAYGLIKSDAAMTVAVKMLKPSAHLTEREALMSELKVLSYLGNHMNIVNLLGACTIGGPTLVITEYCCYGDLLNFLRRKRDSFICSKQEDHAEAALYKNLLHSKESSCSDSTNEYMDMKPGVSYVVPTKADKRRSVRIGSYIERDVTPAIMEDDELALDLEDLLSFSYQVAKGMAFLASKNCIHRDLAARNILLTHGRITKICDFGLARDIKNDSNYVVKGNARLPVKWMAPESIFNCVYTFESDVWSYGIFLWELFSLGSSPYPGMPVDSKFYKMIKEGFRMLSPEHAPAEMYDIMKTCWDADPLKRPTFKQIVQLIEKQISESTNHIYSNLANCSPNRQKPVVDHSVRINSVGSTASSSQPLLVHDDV
# procedureDetails: Caliper biochemical assay, wtKIT
# setupConditions: Table 6, read-out: KIT Biochemical IC50 avg
Give measured IC50 for each item. Keep answers brief.

Recorded results for 3 compounds are shown here.
CCNc1ccn2c(C(=O)Nc3cc(-c4noc(C)n4)ccc3C)cnc2c1: ≤ 50 nM
Cc1ccc(-c2noc(C3(C)CC(F)(F)CN3)n2)cc1NC(=O)c1cnc2ccccn12 (racemic): ≤ 50 nM
Cc1ccc(-c2noc(CC(O)C(F)(F)F)n2)cc1NC(=O)c1cnc2ccccn12 (racemic): 50 to 500 nM

Kindly review the next compound as well.
Input line: Give reported IC50 value for Cc1ccc(-c2noc(CC(C)(C)O)n2)cc1NC(=O)c1cnc2ccccn12
Output line: 50 to 500 nM

---

# procedureDetails: Three time point assay for plasma, brain and testes distribution after oral dosing
# Assay type: in vivo, rat
# setupConditions: rat, oral dosing, time point 7 h
quantityName: Brain concentration

Cc1ccc(-c2noc([C@H]3C[C@@H]3F)n2)cc1NC(=O)c1cnc2cc(OC(C)C)ccn12: 1250 ng/g

Could I get Brain concentration for every one of these entries?
1. Cc1ccc(-c2noc(CC(O)C(F)F)n2)cc1NC(=O)c1cnc2ccccn12 (stereo not shown)
2. Cc1ccc(-c2noc([C@H]3C[C@@H]3F)n2)cc1NC(=O)c1cnc2cc(OC(F)(F)F)ccn12

Output line:
1. 45.5 ng/g
2. 1730 ng/g

Input line: Supply reported Brain concentration belonging to this molecule: COc1ccn2c(C(=O)Nc3cc(-c4noc(CC(O)C(F)F)n4)ccc3C)cnc2c1 (single isomer, unassigned)
Output line: 65.4 ng/g
